Test: NCI Yeast Anticancer Drug Screen. Data for the cln2 rad14 strain (AID 165)
Conditions: S. cerevisiae cln2 rad14 strain, at 50.0 µM, active compounds read high
The panel holds about 79,000 compounds, 15% with a hit somewhere; the sample as a whole holds those more often.
Hi all, reminder that labels come from growth inhibition, split as bottom bin (below -10%), middle bin (-10% to below 10%), top bin (10% or more)

{"columns": ["COMPOUND", "CLASS_LABEL"],
 "data": [
  ["COc1ccc(C2OCCC(C)O2)cc1OC (stereo not drawn)", "bottom bin"],
  ["CCOc1c(N=Nc2ccccc2C)c(-c2ccccc2)nn1C(N)=S", "top bin"],
  ["COc1ccc(/C(N)=N/OCc2ccc(C#N)cc2)cc1", "top bin"],
  ["N#Cc1ccc(OC(=O)Nc2cccc(Cl)c2Cl)cc1", "top bin"],
  ["CCCCCCCCCCS(=O)(=O)CC(=O)O", "bottom bin"],
  ["CCCC(C)C(O)C(C)C (stereo not drawn)", "middle bin"],
  ["Nc1ccc(N(S(=O)(=O)c2ccccc2)S(=O)(=O)c2ccccc2)c(Cl)c1", "top bin"],
  ["O=C(Oc1cccc2ccccc12)c1ccccc1", "bottom bin"],
  ["CN(C)CCC(=O)C(=Cc1ccc(O)cc1)C(=O)CCN(C)C", "middle bin"],
  ["NS(=O)(=O)c1ccc(NC(=O)Nc2cccc(C(F)(F)F)c2)cc1", "top bin"],
  ["O=C1NC2(O)C(=O)c3ccccc3C2(O)N1 (stereo not drawn)", "middle bin"],
  ["CCOC(=O)N/C=C/C(C)=O", "bottom bin"],
  ["O=c1[nH]nc(-c2ccc(Cl)cc2)[nH]1", "bottom bin"]
]}
